target: HLA-A*2401 (human)
run-description: inhibition of 125I probe peptide binding to purified HLA; IC50 standard/IC50 test
Values of relative binding ratio greater than or equal to 0.01 map to YES; values below map to NO.

>>> category("EFAGCKKI [HER2/neu 363-370]")
"NO"
>>> category("RMARDPQRF [HER2/neu 978-986]")
"NO"
>>> category("RWGLLLALL [HER2/neu 8-16]")
"YES"
>>> category("AFGTVYKGI [HER2/neu 730-738]")
"NO"
>>> category("KYTMRRLL [HER2/neu 684-691]")
"NO"
>>> category("CYQDTILW [HER2/neu 162-169]")
"YES"
>>> category("PMCKGSRCW [HER2/neu 197-205]")
"NO"
>>> category("VWSYGVTVWEL [HER2/neu 905-915]")
"YES"
>>> category("LFEDNYALAVL [HER2/neu 107-117]")
"NO"
>>> category("IFGSLAFL [HER2/neu 370-377]")
"YES"
>>> category("SWLGLRSLR [HER2/neu 451-459]")
"NO"
